Entries annotated with measured inhibition at 5 mg/kg
molecular target: Amine oxidase [flavin-containing] B (Rattus norvegicus); assay: Ex-Vivo Time course of evaluation for the percentage inhibition of MAO-B for 0.5 hr at single dose 5 mg/kg through oral gavage; type: organism-based; parameters: dose 5 mg/kg, route oral
Sequence (P19643 whole entry): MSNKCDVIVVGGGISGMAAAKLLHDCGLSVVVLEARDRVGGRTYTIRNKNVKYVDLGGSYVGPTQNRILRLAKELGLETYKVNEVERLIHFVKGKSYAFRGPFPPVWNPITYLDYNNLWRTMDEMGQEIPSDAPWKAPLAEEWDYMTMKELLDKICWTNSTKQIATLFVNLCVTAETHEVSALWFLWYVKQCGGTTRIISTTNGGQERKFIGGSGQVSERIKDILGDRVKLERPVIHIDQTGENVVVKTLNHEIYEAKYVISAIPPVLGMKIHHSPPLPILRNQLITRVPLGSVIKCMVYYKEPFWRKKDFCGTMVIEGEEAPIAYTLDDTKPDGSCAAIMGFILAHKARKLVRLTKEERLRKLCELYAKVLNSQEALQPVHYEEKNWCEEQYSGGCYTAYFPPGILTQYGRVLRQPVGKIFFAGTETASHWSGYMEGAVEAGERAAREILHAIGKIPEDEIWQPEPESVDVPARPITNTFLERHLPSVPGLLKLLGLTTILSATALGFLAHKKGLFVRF
Report only the number, with the unit % understood.

Check out these entries, answers already filled in.
# record smiles, endpoint name, quantitative result
data = [
    ("N#CCCN1N=C(c2ccc(OCc3ccccc3)cc2)OCC1=O", "inhibition at 5 mg/kg", 21),
    ("O=c1oc(-c2ccc(OCc3ccccc3)cc2)nn1CCO", "inhibition at 5 mg/kg", 65),
    ("N#CCCN1N=C(c2ccc(OCc3ccccc3)cc2)OCC1=S", "inhibition at 5 mg/kg", 12),
    ("N#CCCn1nc(-c2ccc(OCc3ccccc3)cc2)sc1=S", "inhibition at 5 mg/kg", 27),
    ("N#CCCn1nc(-c2ccc(OCc3ccccc3)cc2)oc1=S", "inhibition at 5 mg/kg", 68),
    ("N#CCCn1nc(-c2ccc(OCc3ccccc3)cc2)sc1=O", "inhibition at 5 mg/kg", 44),
    ("COc1cccc(COc2ccc(-c3nn(CCC#N)c(=O)o3)cc2)c1", "inhibition at 5 mg/kg", 12),
    ("Cc1cccc(COc2ccc(-c3nn(CCC#N)c(=O)o3)cc2)c1", "inhibition at 5 mg/kg", 6),
    ("Cc1ccc(COc2ccc(-c3nn(CCC#N)c(=O)o3)cc2)cc1", "inhibition at 5 mg/kg", 9),
]

Exercise: Reported inhibition at 5 mg/kg for N#CCCn1nc(-c2ccc(OCc3cccc(Cl)c3)cc2)oc1=O : what is it?
Solution: 1
